This collection of values is drawn from ChEMBL document CHEMBL1138882.

- Tested on: Rattus norvegicus
- assayProcedure: Drug level in Sprague-Dawley rat heart at 300 umol/kg, sc after 0.5 hrs
- Assay type: ADME, organism-based
- recordedConditions: in vivo

# structureString, targetDesc, Drug uptake (nmol/g)
data = [
    ("COc1ccc(O)c(C2=N[C@@](C)(C(=O)O)CS2)c1", "Rattus norvegicus", 208),
    ("O=C(O)[C@H]1CSC(c2cc(O)ccc2O)=N1", "Rattus norvegicus", 42),
    ("COc1ccc(C2=N[C@@](C)(C(=O)O)CS2)c(O)c1OC", "Rattus norvegicus", 259),
    ("COc1ccc(O)c(C2=N[C@@H](C(=O)O)CS2)c1", "Rattus norvegicus", 380),
    ("COc1ccc(C2=N[C@@H](C(=O)O)CS2)c(O)c1OC", "Rattus norvegicus", 185),
]

---

- System: Rattus norvegicus
- assayProcedure: Toxicity in Sprague-Dawley rat at 384 umol/kg, po
- Format: organism-based
- recordedConditions: in vivo

# structureString, Activity
records = [
    ("COc1ccc(O)c(C2=N[C@@](C)(C(=O)O)CS2)c1", "Toxic"),
    ("COc1ccc(C2=N[C@@](C)(C(=O)O)CS2)c(O)c1", "Toxic"),
]
